# test description: RP, Waters CORTECS T3, 100 × 2.1 mm, 2.7 µm, 0.1 mL/min, estimated dead time 2.2 min; A: water + 0.1% formic acid, pH 3; B: methanol + 0.1% formic acid, pH 3; gradient (min/%B) 0/0 1/0 6/5 30/100 35/100 35.1/0 40/0
# condition notes: stereoisomer not certain
LC retention time for assorted compounds

compound	units	LC retention time
NC(=O)[C@@H](N)Cc1c[nH]c2ccccc12 [L-TRYPTOPHANAMIDE]	min	7.08
CCCCC(CC)COC(=O)c1ccccc1C(=O)OCC(CC)CCCC (stereo not drawn) [BIS(2-ETHYLHEXYL)PHTHALATE]	min	26.7
CC12CCC(=O)C=C1CCC1C2C(=O)CC2(C)C1CCC2(O)C(=O)CO (stereo not drawn)	min	18

Ref: the RepoRT retention time repository (doi:10.1016/j.jchromb.2020.122105)
